Each entry below carries its reported relative viability.
- Tested on: MES-SA
- Run description: relative viability vs DMSO control (72 h) (fraction); higher = more viable cells
- Condition set: 0.04115 µM
Assay readout: relative viability

| Molecule | Assay readout | Value |
| --- | --- | --- |
| CC(C)NC[C@@H](C(=O)N1CCN(c2ncnc3c2[C@H](C)C[C@H]3O)CC1)c1ccc(Cl)cc1 | relative viability | 0.847 |
| CNC(=O)c1nnc(NC(=O)C2CC2)cc1Nc1cccc(-c2ncn(C)n2)c1OC | relative viability | 0.952 |
| CC[C@@H]1CN(C(=O)NCC(F)(F)F)C[C@@H]1c1cnc2cnc3[nH]ccc3n12 | relative viability | 0.92 |
| O=C1NC(=O)[C@@H](c2cn3c4c(cccc24)CCC3)[C@@H]1c1c[nH]c2ccccc12 [Tivantinib] | relative viability | 0.888 |

Data provenance: the supplement of paper PMC10883282
